# reported Ki; entries follow
Target: Neuronal acetylcholine receptor subunit alpha-7 (Homo sapiens, UniProt P36544)
Sequence (P36544 whole entry): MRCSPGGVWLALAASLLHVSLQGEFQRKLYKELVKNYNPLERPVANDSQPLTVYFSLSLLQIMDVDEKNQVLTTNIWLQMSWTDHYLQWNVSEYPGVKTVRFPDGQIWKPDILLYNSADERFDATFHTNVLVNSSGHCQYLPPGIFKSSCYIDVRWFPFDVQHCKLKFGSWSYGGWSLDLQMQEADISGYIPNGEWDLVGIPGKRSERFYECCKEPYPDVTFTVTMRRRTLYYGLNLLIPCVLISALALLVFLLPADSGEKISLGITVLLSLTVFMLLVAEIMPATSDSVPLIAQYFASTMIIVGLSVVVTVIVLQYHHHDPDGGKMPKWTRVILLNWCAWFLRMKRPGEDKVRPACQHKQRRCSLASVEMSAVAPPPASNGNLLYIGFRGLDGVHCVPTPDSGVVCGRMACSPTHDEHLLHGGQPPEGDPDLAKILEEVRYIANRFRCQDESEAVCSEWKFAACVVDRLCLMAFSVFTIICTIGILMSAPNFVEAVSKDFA
Assay: Displacement of [3H]epibatidine from alpha7 nicotinic receptor expressed in human HEK293 cells
QUANTITY_MEASURED: Ki (µM)

| MOLECULE | COMPARISON_SIGN | REPORTED_MEASUREMENT |
| --- | --- | --- |
| CC(C)S(=O)(=O)Nc1cncc(-c2ccccc2O[C@H]2C[C@@H]3CNC[C@H]2C3)c1.Cl (racemic) | = | 14.6 |
| Cl.Oc1cncc(-c2ccccc2O[C@@H]2C[C@H]3CNC[C@@H]2C3)c1 | > | 15 |
| Cl.Oc1cncc(-c2ccccc2O[C@H]2C[C@@H]3CNC[C@H]2C3)c1 | > | 13.5 |
| Cl.c1cncc(-c2ccccc2O[C@H]2C[C@@H]3CNC[C@H]2C3)c1 | = | 3.3 |
| Cl.Oc1ccncc1-c1ccccc1O[C@H]1C[C@@H]2CNC[C@H]1C2 (racemic) | > | 15 |
| Cl.Oc1cncc(-c2ccccc2O[C@H]2C[C@@H]3CNC[C@H]2C3)c1 (racemic) | = | 1.58 |
| CCS(=O)(=O)Nc1cncc(-c2ccccc2O[C@H]2C[C@@H]3CNC[C@H]2C3)c1.Cl (racemic) | = | 9.87 |
| CS(=O)(=O)Nc1cncc(-c2ccccc2O[C@@H]2C[C@H]3CNC[C@@H]2C3)c1.Cl | > | 15 |
